Tested on: Yap1 mRNA
Assay: Antisense inhibition of human Yap1 in A-431 cells by cEt gapmers, single dose (Example 2, RTS4814)
Format: cell-based
Conditions: Yap1 mRNA as percent of untreated control; A-431 cells; 3-10-3 cEt gapmers targeting SEQ ID NO.: 1, and 2; Table 31
Strand notation (5' to 3'): a small letter for the sugar, then the base; units joined by * are phosphorothioate-linked, units joined directly phosphodiester-linked; [ ] holds rarer units or linkages, { } end groups; capitals alone tell only the bases. k = constrained ethyl (cEt); [5mC] = 5-methylcytosine; d = 2'-deoxy (DNA)
Assign 1.0 whenever YAP1 (% UTC) does not fall below 80 % UTC; assign 0.0 whenever it does.

Before answering, review these 2 worked examples.
1075793 (k[5mC]*kA*kT*dT*dA*dG*dT*dT*dG*d[5mC]*d[5mC]*d[5mC]*dT*kG*kA*k[5mC]; antisense) [compound 1075793] | 0.0
1075217 (kT*kT*kA*dT*dT*dT*dT*dA*d[5mC]*dA*d[5mC]*dG*dA*kA*k[5mC]*kT; antisense) [compound 1075217] | 0.0

(Q) Record 1076049 (kA*kG*kA*dT*dT*dA*dA*dA*dG*dG*d[5mC]*dT*dG*kG*kA*kA; antisense) [compound 1076049] ; criterion: YAP1 (% UTC) no lower than 80 % UTC. Met?
(A) 0.0

(Q) Record 1075057 (antisense k[5mC]*k[5mC]*kT*dT*dA*dG*dG*dA*dG*dT*dA*dG*dA*k[5mC]*kT*kG) [compound 1075057] ; criterion: YAP1 (% UTC) no lower than 80 % UTC. Met?
(A) 0.0

(Q) Record 1074161 (kG*kG*k[5mC]*dG*dA*dG*d[5mC]*dG*dA*dG*dG*dG*d[5mC]*kT*kA*k[5mC]; antisense) [compound 1074161] ; criterion: YAP1 (% UTC) no lower than 80 % UTC. Met?
(A) 1.0
